Data provenance: patent US20160222014A1

- assay_target: recombinant human FAK1 (Homo sapiens)
- Construct: fused on or other part: N-terminal 6xHis tag
- experimental_details: FAK1 HTRF assay
pIC50: −log10 of the molar value.
Items are presented alongside their recorded pIC50.

CN(c1ccccc1Cn1ccc2cnc(Nc3ccc4c(c3)CCC(=O)N4)nc21)S(C)(=O)=O
> 7.70
CNC(=O)Cc1ccccc1Cn1ccc2cnc(Nc3ccc(N4CCN(C)CC4)cc3)nc21
< 6.00
CN(c1ncccc1Cn1ccc2cnc(Nc3ncccn3)nc21)S(C)(=O)=O
< 6.00

Would you kindly look at the next entry?
So the reported pIC50 for "COc1cc(N2CCNCC2)ccc1Nc1cc2c(ccn2S(=O)(=O)c2cccc3cccnc23)cn1" , on recombinant human FAK1 (Homo sapiens), turned out to be > 7.70

###

- assay_target: recombinant human FAK1 (Homo sapiens, UniProt Q05397)
- Construct: fused on or other part: N-terminal 6xHis tag
- experimental_details: FAK1 HTRF assay
Here the recorded IC50 is given for each entry.

CC(=O)N(C)c1ccccc1Cn1ccc2cnc(Nc3ccc(N4CCC(N(C)C)CC4)cc3)nc21
> 1 µM

Summary for this molecule, "O=S(=O)(c1cccc2cccnc12)n1ncc2cnc(Nc3ccc(N4CCC(O)CC4)cc3)cc21" : IC50 is < 0.02 µM

What the record says about "O=S(=O)(c1cccc2cccnc12)n1ccc2cnc(Nc3ccc(N4CCC(O)CC4)cc3)nc21" : IC50 is < 0.02 µM

For reference, reported IC50 for "COc1cc(N2CCN(CCOC(C)=O)CC2)ccc1Nc1cc2c(ccn2S(=O)(=O)c2cccc3cccnc23)cn1" stands at < 0.02 µM

Recorded result, "COc1cc(N2CCNCC2)ccc1Nc1cc2c(cn1)cnn2S(=O)(=O)c1cccc2cccnc12" , IC50: < 0.02 µM

Data point: "O=C1CCc2cc(Nc3ncc4ccn(S(=O)(=O)c5ccccc5OC(F)F)c4n3)ccc2N1" ; IC50 = < 0.02 µM

The molecule identified as "Cc1ccc(N(C)S(C)(=O)=O)c(Cn2ccc3cnc(Nc4ccc(N5CCN[C@@H](C)C5)cc4)nc32)c1" registered its IC50 at < 0.02 µM

###

EC50 values, listed per item
- assay_target: FAK phosphorylated at Y397 in HEK-FAK cell line overexpressing human FL FAK protein (Homo sapiens, UniProt Q05397)
- Construct: expressed in transfected cells
- Sequence (Q05397 whole entry): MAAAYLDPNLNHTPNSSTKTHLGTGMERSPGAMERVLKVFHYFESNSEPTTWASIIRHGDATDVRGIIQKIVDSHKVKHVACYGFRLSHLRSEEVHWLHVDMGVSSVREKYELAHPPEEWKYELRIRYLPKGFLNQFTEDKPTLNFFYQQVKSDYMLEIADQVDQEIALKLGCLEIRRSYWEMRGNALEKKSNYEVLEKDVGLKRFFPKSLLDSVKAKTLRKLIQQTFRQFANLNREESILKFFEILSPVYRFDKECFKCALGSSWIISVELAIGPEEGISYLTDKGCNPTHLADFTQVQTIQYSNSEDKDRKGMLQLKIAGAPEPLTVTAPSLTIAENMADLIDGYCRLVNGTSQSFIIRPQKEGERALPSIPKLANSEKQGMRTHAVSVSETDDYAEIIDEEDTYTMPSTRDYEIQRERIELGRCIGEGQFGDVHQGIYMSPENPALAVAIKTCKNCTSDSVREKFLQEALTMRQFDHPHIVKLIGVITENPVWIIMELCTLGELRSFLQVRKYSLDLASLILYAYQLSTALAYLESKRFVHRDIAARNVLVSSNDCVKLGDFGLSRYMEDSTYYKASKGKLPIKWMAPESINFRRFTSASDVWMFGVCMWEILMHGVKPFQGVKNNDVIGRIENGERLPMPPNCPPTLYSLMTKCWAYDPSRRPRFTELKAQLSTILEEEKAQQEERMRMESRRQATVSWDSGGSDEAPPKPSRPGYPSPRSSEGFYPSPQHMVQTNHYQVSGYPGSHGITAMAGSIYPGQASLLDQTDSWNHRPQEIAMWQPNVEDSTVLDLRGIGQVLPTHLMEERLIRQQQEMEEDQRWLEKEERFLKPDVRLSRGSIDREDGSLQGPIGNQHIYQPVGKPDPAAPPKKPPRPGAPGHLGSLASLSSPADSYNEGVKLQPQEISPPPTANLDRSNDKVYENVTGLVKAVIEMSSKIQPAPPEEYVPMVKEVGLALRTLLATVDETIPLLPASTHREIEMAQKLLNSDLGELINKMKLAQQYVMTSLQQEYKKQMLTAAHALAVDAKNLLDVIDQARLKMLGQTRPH
- experimental_details: Cell based assay, Phospho-FAK ELISA
- condition_info: HEK stb; read-out: pFAK EC50 (μM) HEK stb

Below are worked cases with known answers.
CN(c1ncccc1CN1c2nc(Nc3ccc(N4CCNCC4)cc3)ncc2C(C)(C)C1O)S(C)(=O)=O (stereo not shown)
> 1 µM
CN(c1ccccc1Cn1ccc2cnc(Nc3ccc(OC4CNC4)cc3)nc21)S(C)(=O)=O
> 1 µM
COc1ccc(N(C)S(C)(=O)=O)c(Cn2ccc3cnc(Nc4ccc(N5CCC(N(C)C)CC5)cc4)nc32)c1
< 0.02 µM

response.value for "CN(c1ncccc1Cn1ccc2cnc(Nc3ccc(N4CCNC(C)(C)C4=O)cc3)nc21)S(C)(=O)=O" (field: EC50) = > 1 µM

###

- assay_target: AURKB (Aurora B) enzyme (Homo sapiens, UniProt Q96GD4)
- Sequence (Q96GD4 whole entry): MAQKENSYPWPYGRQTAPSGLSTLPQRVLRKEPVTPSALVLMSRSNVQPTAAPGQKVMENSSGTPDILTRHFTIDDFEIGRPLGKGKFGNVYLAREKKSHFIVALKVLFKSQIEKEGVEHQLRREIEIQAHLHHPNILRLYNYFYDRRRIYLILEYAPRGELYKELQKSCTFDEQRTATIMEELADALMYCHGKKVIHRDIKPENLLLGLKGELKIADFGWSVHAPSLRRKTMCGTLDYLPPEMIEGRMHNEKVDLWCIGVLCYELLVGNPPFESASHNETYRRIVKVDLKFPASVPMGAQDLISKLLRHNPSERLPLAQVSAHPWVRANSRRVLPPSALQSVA
pIC50: −log10 of the molar value.
endpoint: pIC50

CN(C)C1CN(c2ccc(Nc3ncc4ccn(Cc5ccccc5N(C)S(C)(=O)=O)c4n3)cc2F)C1 [Example 608]
> 7.70

// sample CN(c1ncccc1Cn1ccc2cnc(Nc3ccc4c(c3)CC(=O)N4)nc21)S(C)(=O)=O [Example 304] , its pIC50 was > 7.70

Given item COc1ccccc1S(=O)(=O)n1ccc2cnc(Nc3ccc(N4CCNCC4)cc3)nc21 [Example 333] , the value recorded as its pIC50 is > 7.70

# pIC50 of Cc1ccc2cccc(S(=O)(=O)n3ccc4cnc(Nc5ccc(N6CCNCC6)cc5)cc43)c2n1 [Example 369] = > 7.70

Memo: O=S(=O)(c1cccc2cccnc12)n1ccc2cnc(Nc3ccc(N4CCN(CCO)CC4)cc3)nc21 [Example 311] , reported pIC50: > 7.70

The value of pIC50 measured for the compound COc1ccccc1Nc1ncc2ccn(Cc3cccnc3N(C)S(C)(=O)=O)c2n1 [Example 154] turned out to be < 6.00

Per the records, this compound ( CS(=O)(=O)N(CCN)c1ccccc1Cn1ccc2cnc(Nc3ccc(N4CCNCC4)cc3)nc21 [Example 558] ) has pIC50 equal to < 6.00

Consider CN(c1ncccc1Cn1ccc2cnc(Nc3ccc4ncsc4c3)nc21)S(C)(=O)=O [Example 123] . Its measured pIC50 is > 7.70

Entry C[C@H]1CN(c2ccc(Nc3ncc4ccn(S(=O)(=O)c5cccc(C#N)c5)c4n3)cc2)CCN1 [Example 306] , pIC50 reported as > 7.70

pIC50 reading for O=c1[nH]c2ccc(Nc3ncc4ccn(S(=O)(=O)c5ccccc5OC(F)(F)F)c4n3)cc2[nH]1 [Example 93] : > 7.70

// pIC50 lookup, compound = CN(c1ncccc1CN1CC(C)(C)c2cnc(Nc3ccc(N4CCNCC4)cc3)nc21)S(C)(=O)=O [Example 437] , result: < 6.00
